# MEASUREMENT_TARGET: Human KDR (residues 790-1356) (Homo sapiens (Human))
# TEST_PROTOCOL: Human KDR kinase assay, HTRF KinEase (Example B-2)
# Assay type: biochemical
# SETUP_CONDITIONS: protocol of Example B-2
Counter-ions that a name gives are not always drawn.
A collection of molecules and their measured IC50
EXPERIMENTAL_READOUT: IC50

| MOLECULE | OBSERVED_RESULT |
| --- | --- |
| COc1nc2c(Oc3ccc(NC(=O)c4c(C)nc(C)c(-c5ccc(F)cc5)c4O)cc3F)ccnc2cc1C(C)C | > 300 nM |
| COCc1nc(C)c(-c2ccc(F)cc2)c(O)c1C(=O)Nc1ccc(Oc2ccnc3ccc(OC)nc23)cc1 | 100 to 300 nM |
| COc1cc2nccc(Oc3ccc(NC(=O)c4cn(C(C)C)c(C)c(-c5ccc(F)cc5)c4=O)cc3F)c2nc1N(C)C | > 300 nM |
| Cc1nc2c(Oc3ccc(NC(=O)c4cnc(C)c(-c5ccc(F)cc5)c4O)cc3F)ccnc2cc1-c1cnn(C(F)F)c1 [Compound 615, hydrochloride] | < 100 nM |
| CCc1nc(C)c(-c2ccc(F)cc2)c(O)c1C(=O)Nc1ccc(Oc2ccnc3ccc(OC)nc23)cc1 | < 100 nM |
| C=C(C)c1cc2nccc(Oc3ccc(NC(=O)c4c(C)nc(C)c(-c5ccc(F)cc5)c4O)cc3F)c2nc1OC | 100 to 300 nM |
| Cc1ccc2nccc(Oc3ccc(NC(=O)c4c(C)nc(C)c(-c5ccc(F)cc5C)c4O)cc3F)c2n1 | > 300 nM |
| COc1cc2nccc(Oc3ccc(NC(=O)c4c(C)nc(C)c(-c5ccc(F)cc5CO)c4O)cc3F)c2nc1OC | < 100 nM |
| COc1cc2nccc(Oc3ccc(NC(=O)c4ccnn(-c5ccc(F)cc5C)c4=O)cc3F)c2nc1OC | 100 to 300 nM |
| COc1cc2nccc(Oc3ccc(NC(=O)c4c(C)c(C)nn(-c5ccc(F)cc5)c4=O)cc3F)c2nc1OC | 100 to 300 nM |
| COc1cc2nccc(Oc3ccc(NC(=O)c4cc(C)nn(-c5ccc(F)cc5)c4=O)cc3)c2nc1OC | > 300 nM |
| COc1cc2nccc(Oc3ccc(NC(=O)c4c(C)n(C)cc(-c5ccc(F)cc5C)c4=O)cc3F)c2nc1OC | 100 to 300 nM |
| COc1cc2nccc(Oc3ccc(NC(=O)c4nn(C)c(C)c(-c5ccc(F)cc5C)c4=O)cc3F)c2nc1OC | < 100 nM |
| CCn1cc(C(=O)Nc2ccc(Oc3ccnc4cc(OC)cnc34)c(F)c2)c(=O)c(-c2ccc(F)cc2)c1CF | > 300 nM |

###

# MEASUREMENT_TARGET: KDR (phospho-KDR, VEGF165-stimulated HUVEC cells) (Homo sapiens (Human))
# TEST_PROTOCOL: KDR autophosphorylation ELISA in HUVEC cells (Example G)
# Assay type: cell-based
# SETUP_CONDITIONS: cellular activity; KDR autophosphorylation ELISA in HUVEC cells
pIC50: −log10 of the molar value.

| CPD_SMILES | pIC50 |
| --- | --- |
| COc1cnc2c(Oc3ccc(NC(=O)c4cnc(C(F)(F)F)c(-c5ccc(F)cc5)c4O)cc3F)ccnc2c1 | < 6.52 |
| CCn1cc(C(=O)Nc2ccc(Oc3ccnc4cc(OC)cnc34)cc2)c(=O)c(-c2ccc(F)cc2)c1CO | < 6.52 |
| Cc1ccc2nccc(Oc3ccc(NC(=O)c4c(C)nc(C)c(-c5ccc(F)cc5C)c4O)cc3)c2n1 | > 7.00 |
| COc1cc2nccc(Oc3ccc(NC(=O)c4nnc(C)c(-c5ccc(F)cc5)c4OC)cc3F)c2nc1OC | > 7.00 |
| COCCOc1cc2nccc(Oc3ccc(NC(=O)c4c(C)nc(C)c(-c5ccc(F)cc5)c4O)cc3F)c2nc1OC | > 7.00 |
| Cc1ncc(C(=O)Nc2ccc(Oc3ccnc4cnc(Cl)cc34)c(F)c2)c(=O)n1-c1ccc(F)cc1 | < 6.52 |
| COc1cc2nccc(Oc3ccc(NC(=O)c4cn(C)c(CO)c(-c5ccc(F)cc5C)c4=O)cc3F)c2nc1OC | > 7.00 |

###

# MEASUREMENT_TARGET: KDR (phospho-KDR, VEGF165-stimulated HUVEC cells) (Homo sapiens (Human), UniProt P35968)
# Sequence (P35968 20-1356): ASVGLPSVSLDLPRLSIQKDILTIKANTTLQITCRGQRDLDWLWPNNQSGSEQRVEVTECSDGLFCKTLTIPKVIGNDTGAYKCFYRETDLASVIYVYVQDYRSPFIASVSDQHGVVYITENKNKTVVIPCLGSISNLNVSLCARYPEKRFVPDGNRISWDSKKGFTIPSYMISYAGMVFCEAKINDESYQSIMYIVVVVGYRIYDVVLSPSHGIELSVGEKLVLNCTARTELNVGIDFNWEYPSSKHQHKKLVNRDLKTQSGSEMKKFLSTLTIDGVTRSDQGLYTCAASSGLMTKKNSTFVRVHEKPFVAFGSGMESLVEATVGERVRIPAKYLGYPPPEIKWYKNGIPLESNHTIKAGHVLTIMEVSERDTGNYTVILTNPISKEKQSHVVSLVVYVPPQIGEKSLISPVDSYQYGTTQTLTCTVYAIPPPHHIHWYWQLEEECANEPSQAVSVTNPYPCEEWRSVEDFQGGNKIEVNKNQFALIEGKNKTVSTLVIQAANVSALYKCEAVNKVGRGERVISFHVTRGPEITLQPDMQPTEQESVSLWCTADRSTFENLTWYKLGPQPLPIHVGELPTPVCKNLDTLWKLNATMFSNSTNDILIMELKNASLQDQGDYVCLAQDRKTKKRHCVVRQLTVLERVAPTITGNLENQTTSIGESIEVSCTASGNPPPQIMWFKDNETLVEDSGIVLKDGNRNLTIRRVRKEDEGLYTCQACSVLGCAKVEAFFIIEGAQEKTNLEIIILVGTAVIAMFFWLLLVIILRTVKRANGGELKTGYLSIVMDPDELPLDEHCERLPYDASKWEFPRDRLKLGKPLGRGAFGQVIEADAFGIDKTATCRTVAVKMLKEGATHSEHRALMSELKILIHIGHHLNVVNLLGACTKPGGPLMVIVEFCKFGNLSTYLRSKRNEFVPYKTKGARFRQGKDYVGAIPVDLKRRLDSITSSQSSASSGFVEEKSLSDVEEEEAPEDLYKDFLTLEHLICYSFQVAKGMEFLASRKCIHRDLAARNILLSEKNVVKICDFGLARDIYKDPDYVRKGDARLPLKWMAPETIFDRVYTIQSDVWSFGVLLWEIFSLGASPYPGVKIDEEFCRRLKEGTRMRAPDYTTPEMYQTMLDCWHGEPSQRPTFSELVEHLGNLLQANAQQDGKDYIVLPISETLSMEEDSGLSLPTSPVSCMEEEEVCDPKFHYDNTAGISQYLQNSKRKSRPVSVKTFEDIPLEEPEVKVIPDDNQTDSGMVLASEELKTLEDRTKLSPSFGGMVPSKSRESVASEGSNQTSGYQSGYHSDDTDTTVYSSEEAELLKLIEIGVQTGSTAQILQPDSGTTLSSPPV
# TEST_PROTOCOL: KDR autophosphorylation ELISA in HUVEC cells (Example G)
# Format: cell-based
# SETUP_CONDITIONS: cellular activity; KDR autophosphorylation ELISA in HUVEC cells
pIC50: −log10 of the molar value. Structures can show the parent of a compound that is named as a salt.
A collection of molecules and their measured pIC50

| MOLECULE | MEASUREMENT_TARGET | pIC50 |
| --- | --- | --- |
| COc1cc2nccc(Oc3ccc(NC(=O)c4c(C)[nH]nc(-c5ccc(F)cc5)c4=O)cc3F)c2nc1OC [Compound 653] | KDR (phospho-KDR, VEGF165-stimulated HUVEC cells) (Homo sapiens (Human), UniProt P35968) | > 7.00 |
| COc1cc2nccc(Oc3ccc(NC(=O)c4cn(C(C)C)c(C)c(-c5ccc(F)cc5C)c4=O)cc3F)c2nc1OC [Compound 32, hydrochloride] | KDR (phospho-KDR, VEGF165-stimulated HUVEC cells) (Homo sapiens (Human), UniProt P35968) | < 6.52 |
| COc1cc2nccc(Oc3ccc(NC(=O)c4nn(CC(F)F)c(C)c(-c5ccc(F)cc5)c4=O)cc3)c2nc1OC [Compound 776] | KDR (phospho-KDR, VEGF165-stimulated HUVEC cells) (Homo sapiens (Human), UniProt P35968) | < 6.52 |
| COc1cc2nccc(Oc3ccc(NC(=O)c4cn(C(C)C)c(C)c(-c5ccc(F)cc5)c4=O)cc3F)c2nc1N [Compound 579] | KDR (phospho-KDR, VEGF165-stimulated HUVEC cells) (Homo sapiens (Human), UniProt P35968) | < 6.52 |

###

# MEASUREMENT_TARGET: Human KDR (residues 790-1356) (Homo sapiens (Human), UniProt P35968)
# TEST_PROTOCOL: Human KDR kinase assay, HTRF KinEase (Example B-2)
# Assay type: biochemical
# SETUP_CONDITIONS: protocol of Example B-2 (other compounds)
# Experimental: Kinase activity and compound inhibition were also investigated using the HTRF® KinEase assay (Cisbio Cat #62TKOPEB) per manufacturer's instructions. […] After a 60 min incubation at room temperature, the fluorescence at 665 nm and 620 nm was read on an Envision microplate reader (Perkin Elmer). Kinase activity normalized to DMSO (100% activity) and reference compound at […] and (0% activity) was calculated using the fluorescence ratio 620/665×10,000. […]
Counter-ions that a name gives are not always drawn.
A collection of compounds and their measured IC50

| COMPOUND | MEASUREMENT_TARGET | IC50 |
| --- | --- | --- |
| COc1cnc2c(Oc3ccc(NC(=O)c4cnc(C)c(-c5c(C)cc(F)cc5C)c4O)cc3F)ccnc2c1 | Human KDR (residues 790-1356) (Homo sapiens (Human), UniProt P35968) | > 300 nM |
| COc1ccc2nccc(Oc3ccc(NC(=O)c4cn(C)c(C)c(-c5ccc(F)cc5)c4=O)cc3)c2n1 | Human KDR (residues 790-1356) (Homo sapiens (Human), UniProt P35968) | > 300 nM |
| COCc1nc(C)c(-c2ccc(F)cc2C)c(O)c1C(=O)Nc1ccc(Oc2ccnc3cc(OC)cnc23)c(F)c1 | Human KDR (residues 790-1356) (Homo sapiens (Human), UniProt P35968) | 100 to 300 nM |
| COc1cc2nccc(Oc3ccc(NC(=O)c4c(C)nc(OC)c(-c5ccc(F)cc5)c4O)cc3F)c2nc1OC | Human KDR (residues 790-1356) (Homo sapiens (Human), UniProt P35968) | < 100 nM |
| COCCOc1cc2nccc(Oc3ccc(NC(=O)c4c(C)nc(C)c(-c5ccc(F)cc5)c4O)cc3F)c2nc1OC | Human KDR (residues 790-1356) (Homo sapiens (Human), UniProt P35968) | < 100 nM |
| COc1cnc2c(Oc3ccc(NC(=O)c4c(C)nc(C)c(-c5ccc(F)cc5C)c4O)cc3F)ccnc2c1 | Human KDR (residues 790-1356) (Homo sapiens (Human), UniProt P35968) | < 100 nM |
| COc1cc2nccc(Oc3ccc(NC(=O)c4cn(CCO)cc(-c5ccc(F)cc5)c4=O)cc3F)c2nc1OC | Human KDR (residues 790-1356) (Homo sapiens (Human), UniProt P35968) | < 100 nM |
| Cc1cc(F)ccc1-c1c(C)n(C)cc(C(=O)Nc2ccc(Oc3ccnc4cc(C)c(F)nc34)c(F)c2)c1=O | Human KDR (residues 790-1356) (Homo sapiens (Human), UniProt P35968) | > 300 nM |
| CCc1nc(C)c(-c2ccc(F)cc2C)c(O)c1C(=O)Nc1ccc(Oc2ccnc3cc(OC)c(OC)nc23)c(F)c1 | Human KDR (residues 790-1356) (Homo sapiens (Human), UniProt P35968) | 100 to 300 nM |
| COc1ccc2nccc(Oc3ccc(NC(=O)c4nccn(-c5ccc(F)cc5)c4=O)cc3)c2n1 | Human KDR (residues 790-1356) (Homo sapiens (Human), UniProt P35968) | > 300 nM |
| COc1cc2nccc(Oc3ccc(NC(=O)c4c(C)nc(C)c(-c5ccc(F)cc5C)c4O)cc3F)c2nc1OC | Human KDR (residues 790-1356) (Homo sapiens (Human), UniProt P35968) | < 100 nM |
| COCCOc1nc2c(Oc3ccc(NC(=O)c4cnc(C)c(-c5ccc(F)cc5)c4O)cc3F)ccnc2cc1OC | Human KDR (residues 790-1356) (Homo sapiens (Human), UniProt P35968) | < 100 nM |
| COc1cc2nccc(Oc3ccc(NC(=O)c4cn(C(C)(C)C)cc(-c5ccc(F)cc5)c4=O)cc3F)c2nc1OC | Human KDR (residues 790-1356) (Homo sapiens (Human), UniProt P35968) | > 300 nM |
| COc1cc2nccc(Oc3ccc(NC(=O)c4cn(C)c(C)c(-c5ccccc5)c4=O)cc3F)c2nc1OC [Compound 36, hydrochloride] | Human KDR (residues 790-1356) (Homo sapiens (Human), UniProt P35968) | < 100 nM |
| COc1cnc2c(Oc3ccc(NC(=O)c4cn(OC)cc(-c5ccc(F)cc5)c4=O)cc3F)ccnc2c1 | Human KDR (residues 790-1356) (Homo sapiens (Human), UniProt P35968) | 100 to 300 nM |
| COc1cc2nccc(Oc3ccc(NC(=O)c4c5n(cc(-c6ccc(F)cc6)c4=O)CCC5)cc3)c2nc1OC | Human KDR (residues 790-1356) (Homo sapiens (Human), UniProt P35968) | 100 to 300 nM |
| CCn1cc(C(=O)Nc2ccc(Oc3ccnc4cc(OC)c(OC)nc34)cc2)c(=O)c(-c2ccc(F)cc2)c1CO | Human KDR (residues 790-1356) (Homo sapiens (Human), UniProt P35968) | 100 to 300 nM |
| Cc1nc(C)c(-c2ccc(F)cc2)c(O)c1C(=O)Nc1ccc(Oc2ccnc3ccc(OCCN4CCOCC4)nc23)c(F)c1 | Human KDR (residues 790-1356) (Homo sapiens (Human), UniProt P35968) | < 100 nM |
| COc1cc2nccc(Oc3ccc(NC(=O)c4cnc(C)c(-c5ccc(F)cc5)c4O)cc3F)c2nc1OC(C)C | Human KDR (residues 790-1356) (Homo sapiens (Human), UniProt P35968) | 100 to 300 nM |
| COCCOc1nc2c(Oc3ccc(NC(=O)c4cn(C)c(CO)c(-c5ccc(F)cc5)c4=O)cc3F)ccnc2cc1OC | Human KDR (residues 790-1356) (Homo sapiens (Human), UniProt P35968) | 100 to 300 nM |
| COc1cnc2c(Oc3ccc(NC(=O)c4ccc(C)n(-c5ccc(F)cc5C)c4=O)cc3)ccnc2c1 | Human KDR (residues 790-1356) (Homo sapiens (Human), UniProt P35968) | 100 to 300 nM |
| COCCOc1nc2c(Oc3ccc(NC(=O)c4cn(C)c(C)c(-c5ccc(F)cc5)c4=O)cc3F)ccnc2cc1OC | Human KDR (residues 790-1356) (Homo sapiens (Human), UniProt P35968) | 100 to 300 nM |
| COc1cnc2c(Oc3ccc(NC(=O)c4cncc(-c5ccc(F)cc5)c4O)cc3)ccnc2c1 | Human KDR (residues 790-1356) (Homo sapiens (Human), UniProt P35968) | < 100 nM |
| COc1cc2nccc(Oc3ccc(NC(=O)c4cncc(-c5ccc(F)cc5)c4O)cc3)c2nc1OC | Human KDR (residues 790-1356) (Homo sapiens (Human), UniProt P35968) | < 100 nM |
| CCc1nc(C)c(-c2ccc(F)cc2)c(O)c1C(=O)Nc1ccc(Oc2ccnc3cc(OC)c(OC)nc23)c(F)c1 | Human KDR (residues 790-1356) (Homo sapiens (Human), UniProt P35968) | < 100 nM |
| COc1cc2nccc(Oc3ccc(NC(=O)c4nccn(-c5ccc(F)cc5)c4=O)cc3F)c2nc1OC | Human KDR (residues 790-1356) (Homo sapiens (Human), UniProt P35968) | < 100 nM |
| COc1cc2nccc(Oc3ccc(NC(=O)C4=C5CCCN5CC(c5ccc(F)cc5)C4=O)cc3F)c2nc1OC (single isomer, unassigned; enantiomer 2) [Compound 375] | Human KDR (residues 790-1356) (Homo sapiens (Human), UniProt P35968) | > 300 nM |
| COc1ccc2nccc(Oc3ccc(NC(=O)c4ncc(C)n(-c5ccc(F)cc5)c4=O)cc3)c2n1 | Human KDR (residues 790-1356) (Homo sapiens (Human), UniProt P35968) | > 300 nM |
